Where these numbers come from: the supplement of paper PMC11061612

The entries below come with measured combination Emax values attached.
# Test system: HCC1395 (Breast Carcinoma)
# TEST_METHOD_NOTES: combination Emax (second highest fraction inhibited in the dose matrix, 72 h); higher = more inhibition; extreme values may be limits of the assay
Please reply with the number alone, leaving off any unit.

// known answers, use as guide
>>> test_value("CN(CCO)CC[C@H](CSc1ccccc1)Nc1ccc(S(=O)(=O)NC(=O)c2ccc(N3CCC([C@@H](O)c4ccccc4-c4ccc(Cl)cc4)CC3)cc2)cc1S(=O)(=O)C(F)(F)F [AZD4320] + Nc1ccn([C@@H]2O[C@H](CO)[C@@H](O)C2(F)F)c(=O)n1 [Gemcitabine] (first compound max 1 µM, 7x7, partner max 0.3 µM)")
0.211
>>> test_value("C[C@@H](Nc1cc(F)cc(F)c1)c1cc(C(=O)N(C)C)cc2c(=O)cc(N3CCOCC3)oc12 [AZD8186] + CC(=O)c1c(C)c2cnc(Nc3ccc(N4CCNCC4)cn3)nc2n(C2CCCC2)c1=O [Palbociclib] (first compound max 10 µM, 7x7, partner max 10 µM)")
0.382

Here is another molecule to look at.
Query CN(CCO)CC[C@H](CSc1ccccc1)Nc1ccc(S(=O)(=O)NC(=O)c2ccc(N3CCC([C@@H](O)c4ccccc4-c4ccc(Cl)cc4)CC3)cc2)cc1S(=O)(=O)C(F)(F)F [AZD4320] + C1CN(CCC1(C(=O)N[C@@H](CCO)C2=CC=C(C=C2)Cl)N)C3=NC=NC4=C3C=CN4 [Capivasertib] (first compound max 1 µM, 7x7, partner max 3 µM) yields combination Emax of 0.408

====

# Tested on: JHU-022 (Oral Cavity Carcinoma)
# TEST_METHOD_NOTES: Bliss excess, mean over the matrix (fraction); higher = more synergy
The entries below come with measured Bliss excess values attached.
Please reply with the number alone, leaving off any unit.

>>> test_value("CCN(CCO)CCCOc1ccc2c(Nc3cc(CC(=O)Nc4cccc(F)c4)[nH]n3)ncnc2c1 [AZD2811] + C=CCn1c(=O)c2cnc(Nc3ccc(N4CCN(C)CC4)cc3)nc2n1-c1cccc(C(C)(C)O)n1 [AZD1775] (first compound max 1 µM, partner max 1 µM)")
-0.0217

Query Cn1cnc2c(F)c(Nc3ccc(Br)cc3Cl)c(C(=O)NOCCO)cc21 [Selumetinib] + CCN(CCO)CCCOc1ccc2c(Nc3cc(CC(=O)Nc4cccc(F)c4)[nH]n3)ncnc2c1 [AZD2811] (first compound max 10 µM, 7x7, partner max 1 µM) yields Bliss excess of 0.0079

Query Cn1cnc2c(F)c(Nc3ccc(Br)cc3Cl)c(C(=O)NOCCO)cc21 [Selumetinib] + CC(C)n1c(=O)n(C)c2cnc3cc(F)c(-c4ccc(OCCCN5CCCCC5)nc4)cc3c21 [AZD1390] (first compound max 10 µM, 7x7, partner max 0.3 µM) yields Bliss excess of 0.02

Query CCN(CCO)CCCOc1ccc2c(Nc3cc(CC(=O)Nc4cccc(F)c4)[nH]n3)ncnc2c1 [AZD2811] + O=C(c1cc(Cc2n[nH]c(=O)c3ccccc23)ccc1F)N1CCN(C(=O)C2CC2)CC1 [Olaparib] (first compound max 1 µM, 7x7, partner max 10 µM) yields Bliss excess of -0.021

====

# Test system: MDA-MB-436 (Breast Carcinoma)
# TEST_METHOD_NOTES: Bliss excess, mean over the matrix (fraction); higher = more synergy
The entries below come with measured Bliss excess values attached.
Please reply with the number alone, leaving off any unit.

// known answers, use as guide
>>> test_value("CCN(CCO)CCCOc1ccc2c(Nc3cc(CC(=O)Nc4cccc(F)c4)[nH]n3)ncnc2c1 [AZD2811] + C[C@@H]1COCCN1C2=NC(=NC(=C2)C3(CC3)[S@](=N)(=O)C)C4=C5C=CNC5=NC=C4 [AZD6738] (first compound max 1 µM, 7x7, partner max 10 µM)")
-0.0469
>>> test_value("CN(CCO)CC[C@H](CSc1ccccc1)Nc1ccc(S(=O)(=O)NC(=O)c2ccc(N3CCC([C@@H](O)c4ccccc4-c4ccc(Cl)cc4)CC3)cc2)cc1S(=O)(=O)C(F)(F)F [AZD4320] + C[C@@H]1COCCN1C2=NC(=NC(=C2)C3(CC3)[S@](=N)(=O)C)C4=C5C=CNC5=NC=C4 [AZD6738] (first compound max 1 µM, 7x7, partner max 10 µM)")
-0.0121

Here is another compound to look at.
Query O=C(c1cc(Cc2n[nH]c(=O)c3ccccc23)ccc1F)N1CCN(C(=O)C2CC2)CC1 [Olaparib] + CN(CC[C@H](CSC1=CC=CC=C1)NC2=C(C=C(C=C2)S(=O)(=O)NC(=O)C3=CC=C(C=C3)N4CCC(CC4)[C@H](C5=CC=CC=C5C6=CC=C(C=C6)Cl)O)S(=O)(=O)C(F)(F)F)CCO [AZD4320] (first compound max 10 µM, 7x7, partner max 1 µM) yields Bliss excess of -0.0288
